Tested on: Plasmodium berghei
assayName: Luciferase/luciferin-expressing antifolate-resistant parasites were used to infect a culture of HepG2 cells that were pre-incubated with compounds. Infected hepatocytes emit light due to the luciferase reaction. Assay results are presented as the percent inhibition of light emission compared to control. […]
Assay type: functional
runParameters: sporozoite, PBLUC_HILL_SLOPE 2.57, PBLUC_R_SQUARED 0.548, read-out: LUCIFERASE INFECTION ASSAY - IC50
readoutLabel: IC50 (µM)

>>> measvalue("C=C(C)c1cccc(C(C)(C)NC(=O)NNc2ccnc3cc(Cl)ccc23)c1")
3.86

* * *

System: Plasmodium berghei
assayName: Luciferase/luciferin-expressing antifolate-resistant parasites were used to infect a culture of HepG2 cells that were pre-incubated with compounds. Infected hepatocytes emit light due to the luciferase reaction. Assay results are presented as the percent inhibition of light emission compared to control. […]
Assay type: functional
runParameters: sporozoite, PBLUC_HILL_SLOPE 7.92, PBLUC_R_SQUARED 0.452, read-out: LUCIFERASE INFECTION ASSAY - IC50
readoutLabel: IC50 (µM)

>>> measvalue("NC(=O)C1CCN(c2cc(-c3nc4ccccc4s3)c3ccccc3n2)CC1")
8.36

* * *

Test system: Plasmodium berghei
assayName: Luciferase/luciferin-expressing antifolate-resistant parasites were used to infect a culture of HepG2 cells that were pre-incubated with compounds. Infected hepatocytes emit light due to the luciferase reaction. Assay results are presented as the percent inhibition of light emission compared to control. […]
Format: functional
runParameters: sporozoite, HEPG2TOX_HILL_SLOPE 12.1, HEPG2TOX_R_SQUARED 0.931, PBLUC_HILL_SLOPE 6.74, 7.08, PBLUC_R_SQUARED 0.881, 0.796, read-out: LUCIFERASE INFECTION ASSAY - IC50
pIC50: −log10 of the molar value.
readoutLabel: pIC50

>>> measvalue("C=CCN(C(=O)/C(=C/c1ccccc1)n1nnnc1C)c1nc(-c2ccccc2)cs1")
5.38

* * *

Tested on: Plasmodium berghei
assayName: Luciferase/luciferin-expressing antifolate-resistant parasites were used to infect a culture of HepG2 cells that were pre-incubated with compounds. Infected hepatocytes emit light due to the luciferase reaction. Assay results are presented as the percent inhibition of light emission compared to control. […]
Format: functional
runParameters: sporozoite, PBLUC_HILL_SLOPE 1.28, PBLUC_R_SQUARED 0.571, read-out: LUCIFERASE INFECTION ASSAY - IC50
readoutLabel: IC50

>>> measvalue("COCCCn1c(SCc2ccc(C)cc2)nnc1-c1ccc(C(C)(C)C)cc1")
"> 8.06 µM"

* * *

System: Plasmodium berghei
assayName: Luciferase/luciferin-expressing antifolate-resistant parasites were used to infect a culture of HepG2 cells that were pre-incubated with compounds. Infected hepatocytes emit light due to the luciferase reaction. Assay results are presented as the percent inhibition of light emission compared to control. […]
Format: functional
runParameters: sporozoite, HEPG2TOX_HILL_SLOPE 12.1, HEPG2TOX_R_SQUARED 0.387, PBLUC_HILL_SLOPE 24.3, PBLUC_R_SQUARED 0.56, read-out: LUCIFERASE INFECTION ASSAY - IC50
pIC50: −log10 of the molar value.
readoutLabel: pIC50

>>> measvalue("Cc1ccc(C(C)C)c(OCCCNCCc2ccccc2)c1")
5.04

* * *

Test system: Plasmodium berghei
assayName: Luciferase/luciferin-expressing antifolate-resistant parasites were used to infect a culture of HepG2 cells that were pre-incubated with compounds. Infected hepatocytes emit light due to the luciferase reaction. Assay results are presented as the percent inhibition of light emission compared to control. […]
Type: functional
runParameters: sporozoite, FFLUC_HILL_SLOPE 3.94, FFLUC_R_SQUARED 0.836, read-out: LUCIFERASE INFECTION ASSAY - IC50
readoutLabel: IC50

>>> measvalue("Cc1ccc(C(C#N)c2ccc(NN)nn2)cc1 (stereo unspecified)")
"> 13.8 µM"

* * *

Test system: Plasmodium berghei
assayName: Luciferase/luciferin-expressing antifolate-resistant parasites were used to infect a culture of HepG2 cells that were pre-incubated with compounds. Infected hepatocytes emit light due to the luciferase reaction. Assay results are presented as the percent inhibition of light emission compared to control. […]
Format: functional
runParameters: sporozoite, HEPG2TOX_HILL_SLOPE 0.701, HEPG2TOX_R_SQUARED 0.861, PBLUC_HILL_SLOPE 2.21, PBLUC_R_SQUARED 0.712, read-out: LUCIFERASE INFECTION ASSAY - IC50
readoutLabel: IC50 (µM)

>>> measvalue("NC(=O)c1cccc(-c2ccc3ncc(-c4cccs4)n3n2)c1")
4.09

* * *

System: Plasmodium berghei
assayName: Luciferase/luciferin-expressing antifolate-resistant parasites were used to infect a culture of HepG2 cells that were pre-incubated with compounds. Infected hepatocytes emit light due to the luciferase reaction. Assay results are presented as the percent inhibition of light emission compared to control. […]
Format: functional
runParameters: sporozoite, FFLUC_HILL_SLOPE 1.79, FFLUC_R_SQUARED 0.665, read-out: LUCIFERASE INFECTION ASSAY - IC50
readoutLabel: IC50

>>> measvalue("Cc1csc(-n2c(C)cc(C(=O)CSc3nc(N)cc(N)n3)c2C)n1")
"> 10 µM"

* * *

System: Plasmodium berghei
assayName: Luciferase/luciferin-expressing antifolate-resistant parasites were used to infect a culture of HepG2 cells that were pre-incubated with compounds. Infected hepatocytes emit light due to the luciferase reaction. Assay results are presented as the percent inhibition of light emission compared to control. […]
Format: functional
runParameters: sporozoite, PBLUC_HILL_SLOPE 3.11, PBLUC_R_SQUARED 0.411, read-out: LUCIFERASE INFECTION ASSAY - IC50
pIC50: −log10 of the molar value.
readoutLabel: pIC50

>>> measvalue("Cc1nn(C)c2nc(-c3cccs3)cc(C(=O)Nc3ccccc3C(=O)NCC3CCCO3)c12 (stereo unspecified)")
5.29

* * *

System: Plasmodium berghei
assayName: Luciferase/luciferin-expressing antifolate-resistant parasites were used to infect a culture of HepG2 cells that were pre-incubated with compounds. Infected hepatocytes emit light due to the luciferase reaction. Assay results are presented as the percent inhibition of light emission compared to control. […]
Type: functional
runParameters: sporozoite, PBLUC_HILL_SLOPE 1.17, PBLUC_R_SQUARED 0.0937, read-out: LUCIFERASE INFECTION ASSAY - IC50
readoutLabel: IC50 (µM)

>>> measvalue("COCCOc1ccc(C(F)(F)F)cc1NC(=O)c1ccc2ncsc2c1")
8.48

* * *

Test system: Plasmodium berghei
assayName: Luciferase/luciferin-expressing antifolate-resistant parasites were used to infect a culture of HepG2 cells that were pre-incubated with compounds. Infected hepatocytes emit light due to the luciferase reaction. Assay results are presented as the percent inhibition of light emission compared to control. […]
Type: functional
runParameters: sporozoite, FFLUC_HILL_SLOPE 11.2, FFLUC_R_SQUARED 0.206, PBLUC_HILL_SLOPE 0.638, PBLUC_R_SQUARED 0.443, read-out: LUCIFERASE INFECTION ASSAY - IC50
pIC50: −log10 of the molar value.
readoutLabel: pIC50

>>> measvalue("Cc1onc(-c2c(Cl)cccc2Cl)c1NC(=O)Nc1ccc(Oc2ccc(C(C)(C)C)cc2)nc1")
5.57

* * *

System: Plasmodium berghei
assayName: Luciferase/luciferin-expressing antifolate-resistant parasites were used to infect a culture of HepG2 cells that were pre-incubated with compounds. Infected hepatocytes emit light due to the luciferase reaction. Assay results are presented as the percent inhibition of light emission compared to control. […]
Assay type: functional
runParameters: sporozoite, read-out: LUCIFERASE INFECTION ASSAY - IC90
# key: entry, value: IC90
readoutLabel: IC90

>>> measvalue("O=C(CNc1cc(C(F)(F)F)ccc1Oc1ccc(Br)cc1)NCCC1=CCCCC1")
"> 10 µM"
>>> measvalue("Clc1ccc(OC2OCCOC2Oc2ccc(Cl)cc2Cc2ccccc2)c(Cc2ccccc2)c1 (configuration not stated)")
"> 10 µM"
>>> measvalue("CNC(=O)c1csc(C(O)c2cccc(C(F)(F)F)c2)n1 (configuration not stated)")
"3.81 µM"
>>> measvalue("N#C/C(=N\\Nc1ccc(Cl)cc1Cl)C(=O)c1ccc(Cl)cc1")
"1.16 µM"
>>> measvalue("O=C(Cn1cc(C(=O)c2ccccc2)c2ccccc21)Nc1ccc(F)cc1")
"> 8.86 µM"
>>> measvalue("O=C(Nc1ccccc1O)c1ccccc1NS(=O)(=O)c1ccc(Cl)s1")
"7.2 µM"
>>> measvalue("C=CCN(C(=O)c1sc2nc3n(c(=O)c2c1C)CCCCC3)c1nc2c(s1)CCCC2")
"> 10 µM"
>>> measvalue("CCc1c(C)sc2[nH]c(-c3ccc(C(=O)N4CCN(S(=O)(=O)c5c(Cl)cccc5Cl)CC4)cc3)nc(=O)c12")
"4.36 µM"
>>> measvalue("O=C(CNc1ccc(Oc2ccc(Br)cc2)cc1)NC1CC1")
"> 10 µM"
>>> measvalue("CN(C)C(=O)c1cccc(-c2cn3c(-c4ccc(N(C)C)cc4)cnc3cn2)c1")
"7.57 µM"
>>> measvalue("O=C(Cn1ncc(Cl)c(Cl)c1=O)N(Cc1cccs1)c1ccc2c(c1)OCCO2")
"> 10 µM"
>>> measvalue("CCC1CCCCN1C(=O)COC(=O)c1cc(C(C)(C)C)cc(C(C)(C)C)c1 (configuration not stated)")
"> 10 µM"
>>> measvalue("OC(CN1CCCCC1)Cn1c2ccc(Br)cc2c2cc(Br)cc(Br)c21 (configuration not stated)")
"> 6.05 µM"
>>> measvalue("CCC(=O)c1cc(Br)ccc1OC(=O)Cc1coc2cc(C)c(C)cc12")
"8.33 µM"
>>> measvalue("Cn1ccnc1Sc1c[nH]c(=S)nc1-c1ccc(Cl)cc1")
"9.04 µM"
>>> measvalue("Brc1ccc(-c2noc(CCc3nc4ccccc4[nH]3)n2)cc1")
"7.07 µM"
>>> measvalue("O=C(Nc1ccc(-c2nccs2)cc1)c1occc1COc1ccccc1")
"> 10 µM"
>>> measvalue("O=S(=O)(Nc1ccc(C(F)(F)F)cc1Cl)c1cc(C(F)(F)F)ccc1OCC(F)(F)F")
"3.28 µM"
>>> measvalue("COc1ccc(NC(=O)c2cccc(C3(CNc4ccccc4)CC3)c2)cn1")
"> 10 µM"
>>> measvalue("COc1cccc2c1N(S(=O)(=O)c1ccccc1C(F)(F)F)CCC2")
"> 2 µM"
>>> measvalue("Cn1cccc1C(=O)N1CC2ON=C(c3ccc(F)cc3)C2C1 (configuration not stated)")
"> 10 µM"
>>> measvalue("O=c1cc(CN2CCN(C(c3ccc(F)cc3)c3ccc(F)cc3)CC2)nc2ccc(Cl)cn12")
"9.88 µM"
>>> measvalue("CCCCC(CC)C(=O)Nc1nc2ccccn2c1C(=O)NC1CCCCC1 (configuration not stated)")
"> 8.58 µM"
>>> measvalue("Cc1ccc(NCC(=O)c2ccc(-n3nncc3-c3ccccc3)cc2)cc1")
"> 10 µM"
>>> measvalue("CN(C)c1ccc(-c2cnc3cnc(-c4ccccc4N(C)C)cn23)cc1")
"0.0642 µM"
>>> measvalue("CCCCOc1ccc(Nc2nc(C(N)c3ccccc3Cl)cs2)nn1 (configuration not stated)")
"8.44 µM"
>>> measvalue("CN1/C(=C/C=C2c3ccccc3-c3ccccc32)C=Cc2ccccc21")
"> 9.9 µM"
>>> measvalue("Cc1cc(N(Cc2ccc(C(C)C)cc2)C2CC2)n2ncnc2n1")
"> 10 µM"
>>> measvalue("Fc1ccc(/C=N/n2c(-c3ccc(Cl)cc3)cs/c2=N\\CC2CCCO2)cc1 (configuration not stated)")
"> 10 µM"
>>> measvalue("Cc1cccc2c(=O)nc(CSc3ncnc4sc(-c5ccccc5)cc34)[nH]c12")
"> 10 µM"
>>> measvalue("Cn1c(Nc2ccccc2)nc2cnc(Nc3ccc(Oc4ccccc4)cc3)cc21")
"> 10 µM"
>>> measvalue("CCNC(=S)N/N=C/c1cc(Cl)cc(Cl)c1O")
"> 11.3 µM"
>>> measvalue("CCOC(=O)N1CCN(C2c3ccccc3-c3ccccc32)CC1")
"> 10.2 µM"
>>> measvalue("O=c1c2ccsc2ncn1CCS(=O)(=O)N1CCN(C(c2ccc(F)cc2)c2ccc(F)cc2)CC1")
"> 10 µM"
>>> measvalue("Oc1ccc(Nc2nccc3[nH]c(-c4cccc(F)c4)cc23)cc1")
"8.12 µM"
>>> measvalue("CC(C)Sc1ncccc1C(=O)N1CCN(c2oc(C3CC3)nc2C#N)CC1")
"> 10 µM"
>>> measvalue("Cc1ccc(-c2nc(COC(=O)Cc3ccccc3[N+](=O)[O-])cs2)cc1")
"> 10 µM"
>>> measvalue("O=C1OC(c2ccccc2)Cc2cc(C(=O)N3CCC(C(=O)Nc4ccccc4)CC3)ccc21 (configuration not stated)")
"> 10 µM"
>>> measvalue("Cc1ccc(C2=NN(C(=O)Cn3nc(C)c(S(=O)(=O)N(C)C)c3C)C(c3ccco3)C2)cc1 (configuration not stated)")
"> 10 µM"
>>> measvalue("Nc1c(NCCO)cc(NC2CCCCC2)c2c1C(=O)c1ccccc1C2=O")
"> 8.7 µM"
>>> measvalue("Cc1ccc(-c2csc3[nH]c(CNC(C)c4ccc5c(c4)CCCC5)nc(=O)c23)s1 (configuration not stated)")
"> 10 µM"
>>> measvalue("COc1cc(C(=O)c2c(N)c(C#N)cn3c2nc2ccccc23)cc(OC)c1OC")
"1.04 µM"
